The entries below come with measured sfGFP reporter fluorescence values attached.
B1: library; a variant is named by its letters at X, in order (parent)
chain: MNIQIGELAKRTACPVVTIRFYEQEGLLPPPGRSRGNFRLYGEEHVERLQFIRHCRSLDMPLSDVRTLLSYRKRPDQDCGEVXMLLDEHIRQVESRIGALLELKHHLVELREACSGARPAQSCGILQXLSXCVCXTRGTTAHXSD

Variants of: B1
Experiment: sfGFP reporter fluorescence (15 h) (µM FITC); higher = stronger transcriptional activation
Details: library round: Round 2; ligand: 1 µM Pb
MEASURED METRIC: sfGFP reporter fluorescence

INSERT INTO results (item_sequence, measured_metric, observed_result) VALUES
  ('MNIQIGELAKRTACPVVTIRFYEQEGLLPPPGRSRGNFRLYGEEHVERLQFIRHCRSLDMPLSDVRTLLSYRKRPDQDCGEVNMLLDEHIRQVESRIGALLELTHHEVELREACSGARPAQSCGILQILSDCVCDTRGTTAHPSD [NIDDP K104T L107E]', 'sfGFP reporter fluorescence', 0.0442),
  ('MNIQIGELAKRTACPVVTIRFYEQEGLLPPPGRSRGNFRLYGEEHVERLQFIRHCRSLDMPLSTVRTLLSYRKRPDQDCGEVNMLLDAHIRQVESRIGALLELKHHLVELREACSGARPAQSCGILQGLSDCVCRTRGTTAHPSD [NGDRP D64T E88A]', 'sfGFP reporter fluorescence', 0.499),
  ('MNIQIGELAKRTACPVVTIRFYEQEGLLPPPGRSRGNFRLYGEEHVERLQFIRHCRSLDMPLSDVRTLLSYRKRPDQDCGEVMMLLDEHIRQVESRIGALLELKHHLVELREACSGARPAQSCGILQGLSACVCATRGTTAHPSD [MGAAP]', 'sfGFP reporter fluorescence', 0.0933),
  ('MNIQIGELAKRTACPVVTIRFYEQEGLLPPPGRSRGNFRLYGEEHVERLQFIRHCRSLDMPLSDVRTLLSYRKRPDQDCGEVTMLLDEHIRQVESRIGALLELKHHLLELREACSGARPAQSCGILQGLSDCVCDTRGTTAHMSD [TGDDM V108L]', 'sfGFP reporter fluorescence', 0.0645),
  ('MNIQIGELAKRTACPVVTIRFYEQEGLLPPPGRSRGNFRLYGEEHVERLQFIRHCRSLDMPLSDVRTLLSYRKRPDQDCGEVTMLLDEHIRQVESRIGALLELKHHLVELREACSGARPAQSCGILQGLSNCVCRTRGTTAHASD [TGNRA]', 'sfGFP reporter fluorescence', 0.107),
  ('MNIQIGELAKRTACPVVTIRFYEQEGLLPPPGRSRGNFRLYGEEHVERLQFIRHCRSLDMPLSTVRTLLSYRKRPDQDCGEVTMLLDEHIRQVESRIGALLELKHHLVELLEACSGARPAQSCGILQGLSDCVCDTRGTTAHPSD [TGDDP D64T R111L]', 'sfGFP reporter fluorescence', 0.151),
  ('MNIQIGELAKRTACPVVTIRFYEQEGLLPPPGRSRGNFRLYGEEHVERLQFIRHCRSLDMPLSDVRTLLSYRKRPDQDCGEVNMLLDEHIRQVESRIGALLELKHHLVELREACSGARPAQSCGILQGLSACVVDTRGTTAHTSD [NGADT C134V]', 'sfGFP reporter fluorescence', 0.155),
  ('MNIQIGELAKRTACPVVTIRFYEQEGLLPPPGRSRGNFRLYGEEHVERLQFIRHCRSLDMPLSDVRTLLSYRKRPDQDCGEVNMLLDEHIRQVESRIGALLELKHHCVELREACSGARPAQSCGILQILSSCVCDTRGTTAHPSD [NISDP L107C]', 'sfGFP reporter fluorescence', 3.61),
  ('MNIQIGELAKRTACPVVTIRFYEQEGLLPPPGRSRGNFRLYGEEHVERLQFIRHCRSLDMPLSDVRTLLSYRKRPDQDCGEVNMLLDEHIRQVESRIGALLELKHHLVELREACSGARPAQSCGILQGLSTCVCATRGTTAHTSD [NGTAT]', 'sfGFP reporter fluorescence', 0.0908),
  ('MNIQIGELAKRTACPVVTIRFYEQEGLLPPPGRSRGNFRLYGEEHVERLQFIRHCRSLDMNLSDVRTLLSYRKRPDQDCGEVNMLLDEHIRQVESRIGALLELKHALVELREACSGARPAQSCGILQGLSCCVCDTRGTTAHPSD [NGCDP P61N H106A]', 'sfGFP reporter fluorescence', 0.166),
  ('MNIQIGELAKRTACPVVTIRFYEQEGLLPPPGRSRGNFRLYGEEHVERLQFIRHCRSLDLPLSKVRTLLSYRKRPDQDCGEVNMLLDEHIRQVESRIGALLELKHHLVELREACSGARPAQSCGILQGLSDCVCATRGTTAHPSD [NGDAP M60L D64K]', 'sfGFP reporter fluorescence', 1.27),
  ('MNIQIGELAKRTACPVVTIRFYEQEGLLPPPGRSRGNFRLYGEEHVERLQFIRHCRSLDLPLSTVRTLLSYRKRPDQDCGEVNMLLDEHIRQVESRIGALLELKHHCVELREACSGARPAQSCGILQMLSDCVCDTRGTTAHPSD [NMDDP M60L D64T L107C]', 'sfGFP reporter fluorescence', 2.93),
  ('MNIQIGELAKRTACPVVTIRFYEQEGLLPPPGRSRGNFRLYGEEHVERLQFIRHCRSLDMPLSDVRTLLSYRKRPDQDCGEVSMLLDEHLRQVESRIGALLELKHHLVELREACSGARPAQSCGILQGLSDCVCDTRGTTAHPSA [SGDDP I90L D145A]', 'sfGFP reporter fluorescence', 0.046),
  ('MNIQIGELAKRTACPVVTIRFYEQEGLLPPPGRSRGNFRLYGEEHVERLQFIRHCRSLDLNLSNVRTLLSYRKRPDQDCGEVNMLLDEHIRQVESRIGALLELKHHLVELREACSGARPAQSCGILQGLSDCVCDTRGTTAHPSD [NGDDP M60L P61N D64N]', 'sfGFP reporter fluorescence', 0.582),
  ('MNIQIGELAKRTACPVVTIRFYEQEGLLPPPGRSRGNFRLYGEEHVERLQFIRHCRSLDMPLSDVRTLLSYRKRPDQDCGEVNMLLDEHLRQVESRIGALLELKHHLVELREACSGARPAQSCGILQPLSDCVCATRGTTAHPSD [NPDAP I90L]', 'sfGFP reporter fluorescence', 0.043),
  ('MNIQIGELAKRTACPVVTIRFYEQEGLLPPPGRSRGNFRLYGEEHVERLQFIRHCRSLDMPLSDVRTLLSYRKRPDQDCGEVNMLLDEHIRQVESRIGALLELKHHCVELREACSGARPAQSCGILQMLSDCVCATRGTTAHKSD [NMDAK L107C]', 'sfGFP reporter fluorescence', 3.46),
  ('MNIQIGELAKRTACPVVTIRFYEQEGLLPPPGRSRGNFRLYGEEHVERLQFIRHCRSLDMPLSDVRTLLSYRKRPDQDCGEVNMLLDEHIRQVESRIGALLELKHHLVELREACSGARPAQSCGILQGLSACPVDTRGTTAHPSD [NGADP V133P C134V]', 'sfGFP reporter fluorescence', 0.0967),
  ('MNIQIGELAKRTACPVVTIRFYEQEGLLPPPGRSRGNFRLYGEEHVERLQFIRHCRSLDMPLSDVRTLLSYRKRPDQDCGEVTMLLDEHIRQVESRIGALLELKHHLVELREACSGARPAQSCGILQGLSDCVCDTRGATAHLSD [TGDDL T139A]', 'sfGFP reporter fluorescence', 0.0619),
  ('MNIQIGELAKRTACPVVTIRFYEQEGLLPPPGRSRGNFRLYGEEHVERLQFIRHCRSLDMEISKVRTLLSYRKRPDQDCGEVNMLLDEHIRQVESRIGALLELKHHLVELREACSGARPAQSCGILQGLSDCVCDTRGTTAHPSD [NGDDP P61E L62I D64K]', 'sfGFP reporter fluorescence', 0.249);
